Source: patent US9624239B2

STUDY_TARGET: histidine tagged recombinant human full-length Bruton Agammaglobulinemia Tyrosine Kinase (Btk) (Homo sapiens)
Construct: recombinant human full-length Bruton Agammaglobulinemia Tyrosine Kinase (Btk); histidine tag
Sequence (Q06187 whole entry): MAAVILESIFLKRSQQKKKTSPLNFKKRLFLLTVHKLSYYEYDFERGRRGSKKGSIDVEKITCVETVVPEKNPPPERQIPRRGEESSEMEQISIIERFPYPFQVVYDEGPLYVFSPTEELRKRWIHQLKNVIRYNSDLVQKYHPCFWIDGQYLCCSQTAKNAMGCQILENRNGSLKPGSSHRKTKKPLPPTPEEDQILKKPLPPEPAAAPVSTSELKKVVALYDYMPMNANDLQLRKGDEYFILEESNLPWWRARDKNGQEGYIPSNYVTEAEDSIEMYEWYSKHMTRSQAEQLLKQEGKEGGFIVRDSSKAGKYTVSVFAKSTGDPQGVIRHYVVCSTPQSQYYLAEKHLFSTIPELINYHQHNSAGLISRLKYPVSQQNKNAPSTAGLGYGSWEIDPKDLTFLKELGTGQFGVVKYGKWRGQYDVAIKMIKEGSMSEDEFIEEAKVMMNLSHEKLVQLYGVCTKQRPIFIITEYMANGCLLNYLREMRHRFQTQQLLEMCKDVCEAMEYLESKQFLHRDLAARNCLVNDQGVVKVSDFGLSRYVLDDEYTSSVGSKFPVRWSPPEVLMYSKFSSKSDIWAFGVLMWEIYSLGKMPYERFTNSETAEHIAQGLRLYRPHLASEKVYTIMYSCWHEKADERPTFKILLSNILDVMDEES
EXPERIMENTAL_DETAILS: Btk kinase inhibition assay (fluorescence polarization, KinEASE FP Fluorescein Green)
Assay type: biochemical
CONDITION_INFO: 10 μM ATP, 250 μM substrate, 60 minutes, room temperature; Ki from IC50 by Cheng-Prusoff; read-out: ki50 (nM), Inhibition of Btk
REPORTED_METRIC: Ki

Enquiry: // Ki lookup, key: N#Cc1ccccc1OCc1cccc(Oc2ccc(-n3c4c(c5ncnc(N)c53)COC4)cc2)c1 [Compound 142]
Return: < 100 nM

Enquiry: Look at this molecule and give its reported Ki. CC1OCc2c1c1ncnc(N)c1n2-c1ccc(Oc2cccc(OCc3cccc(NC(=O)C4CC4)c3)c2)cc1 (stereo not shown) [Compound 133]
Return: < 100 nM

Enquiry: # get_value(readout='Ki', item= CC1OCc2c1c1ncnc(N)c1n2-c1ccc(Oc2cccc(NS(C)(=O)=O)c2)cc1 (stereo not shown) [Compound 76] )
Return: < 1000 nM

Enquiry: What Ki value was documented for this molecule, CC1OCc2c1c1ncnc(N)c1n2-c1ccc(Oc2cccc(OCc3ccccc3C(N)=O)c2)cc1 (stereo not shown) [Compound 101] ?
Return: < 1000 nM

Enquiry: GET /values?readout=Ki&item= Cc1nc(COc2cccc(Oc3ccc(-n4c5c(c6ncnc(N)c64)C(C)OC5)cc3)c2)no1 (stereo not shown) [Compound 87]
Return: < 100 nM

Enquiry: Please give the measured Ki for this molecule: CC1OCc2c1c1ncnc(N)c1n2-c1ccc(Oc2cccc(OCCCN(C)C)c2)cc1 (stereo not shown) [Compound 73]
Return: > 1000 nM

Enquiry: Using the record for CC(=O)Nc1cccc(COc2cccc(Oc3ccc(-n4c5c(c6ncnc(N)c64)C(C)OC5)cc3)c2)c1 (stereo not shown) [Compound 106] , report its Ki.
Return: < 100 nM

Enquiry: # input molecule: CC1OCc2c1c1ncnc(N)c1n2-c1ccc(Oc2cccc(O)c2)cc1 (stereo not shown) [Compound 44] ; wanted: its Ki
Return: < 100 nM

Enquiry: Give the measured Ki of CC1OCc2c1c1ncnc(N)c1n2-c1ccc(Oc2cccc(OCc3cccc(OCCN(C)C)c3)c2)cc1 (stereo not shown) [Compound 139] .
Return: < 100 nM

Enquiry: Entry CC1OCc2c1c1ncnc(N)c1n2-c1ccc(Oc2cccc(NC(=O)c3cccc(Cl)c3)c2)cc1 (stereo not shown) [Compound 119] has what Ki?
Return: < 100 nM

Enquiry: Recorded Ki of CC(C)C(=O)Nc1cccc(Oc2ccc(-n3c4c(c5ncnc(N)c53)C(C)OC4)cc2)c1 (stereo not shown) [Compound 111] , please.
Return: < 1000 nM

Enquiry: What value of Ki has been recorded for this entry: CC1OCc2c1c1ncnc(N)c1n2-c1ccc(Oc2cccc(N)c2)cc1 (stereo not shown) [Compound 47]
Return: < 1000 nM

Enquiry: // returns reported Ki for input COc1ccccc1COc1cccc(Oc2ccc(-n3c4c(c5ncnc(N)c53)C(C)OC4)cc2)c1 (stereo not shown) [Compound 108]
Return: < 100 nM

Enquiry: Entry COc1ccc(COc2cccc(Oc3ccc(-n4c5c(c6ncnc(N)c64)C(C)OC5)cc3)c2)cc1 (stereo not shown) [Compound 104] has what Ki?
Return: < 100 nM

Enquiry: Report Ki for CC1OCc2c1c1ncnc(N)c1n2-c1ccc(Oc2cccc(OCc3ccc(C(N)=O)cc3)c2)cc1 (stereo not shown) [Compound 98] please.
Return: < 100 nM

Enquiry: Can you look up the measured Ki of CC1OCc2c1c1ncnc(N)c1n2-c1ccc(Oc2cccc(OCCN3CCOCC3)c2)cc1 (stereo not shown) [Compound 51] for me?
Return: > 1000 nM
